experiment: folding stability dG unfold (combined trypsin and chymotrypsin); higher = more stable
Note to self: values exactly at -0.6 kcal/mol are true. So folding stability dG unfold at or above -0.6 kcal/mol is true, below is false.

Some entries whose results are on file:
seq="SAGGSAPPKIDIDVEPNPEEGYYRVTVEFPDGWPLKIPYPYPDPEDNKRNAKKHVKWILKKHEELLSAGGSA [r15_477_TrROS]" assigned_category=false
seq="SMTVEVELTVTVEVVDPKTGKKKTVTVKVTVKVRVTEVKTKDGKTEVKVELSEEALEEARRLAEELAKKKSA [r9_698_TrROS_Hall]" assigned_category=true
seq="SAGGSAGGSAGMELTVKVPPDTTPEEVKEKIEKELGLKVKSISVSSFPDGTRTVTITIGPSAGGSAGGSAGG [r17_222_JUSTAS]" assigned_category=true
seq="SAGGSAGGSASEEEKPPKIKRVTINIPEEELRERFPGNPEWAENIAREAAKEGFDEVEIDINSAGGSAGGSA [r18_441_TrROS]" assigned_category=true

Given SAGGSAGGSAGSPIPVEVKVTTFGPGGVPREAELLTGDPAAFEKAIGKPLPDGSKVEVLLSAGGSAGGSAGG [r11_671_JUSTAS] , state whether its folding stability dG unfold is at least -0.6 kcal/mol.
false

Given SAGGSAGGTREIELPGMKISVQKDPNQGKKKIEVEFPNGEEFTMDPGKPPDDLPPPFRRALKEISAGGSAGG [r6_749_TrROS] , state whether its folding stability dG unfold is at least -0.6 kcal/mol.
false

Given SAGGSAGGSEEIYIKVTVEHPNGEKRTHEIERIRDKDGLPIKQIAKELAQEPNVRDVDVEIVKSAGGSAGGS [r12_199_TrROS] , state whether its folding stability dG unfold is at least -0.6 kcal/mol.
true

----------
assay: folding stability dG unfold from trypsin proteolysis; higher = more stable
sequences and their reported folding stability dG unfold
Kindly provide the numeric value in kcal/mol only, without the unit symbol.

Quick one: folding stability dG unfold for SAGGSAGGSAMPTYDNPDSLSIEEVKEKVAKEAKEKYPGKSNITVPVKFSDGTEYTVTIKIESAGGSAGGSA [r18_449_JUSTAS] ?
-0.288

Quick one: folding stability dG unfold for MEIIKKLKIPDYEIVSVKTKKIGNKVIVVVVLKKEKEYYVIVAEINPETKEIKIISIKKLKENETLEDFISS [r1_383_TrMRF] ?
3.2

Quick one: folding stability dG unfold for SAGGEEVVVERPPAPPPITVTIEYDEETNTVTVTVTLPNGETLTITVEAPSLEEAEAAARELLEALSSAGGS [r16_319_TrROS_Hall] ?
2.66

Quick one: folding stability dG unfold for SMKPGETVRVTFKTKDGSKIEIEFKNGKPVRITVYNKNGEKVKEIEVTLDELKELAEKLGIEEIVEVEKVSA [r9_1107_TrROS_Hall] ?
2.76

----------
assay: folding stability dG unfold (combined trypsin and chymotrypsin); higher = more stable
PROPERTY_LABEL: folding stability dG unfold

Below: 3 sequences and their reported folding stability dG unfold.
seq="SAGGSAGGMEPLTRVTVELELPGGETRVVEGDDLEAVKERLKEELGLPDLVVKSVKTTPLPALESAGGSAGG [r6_406_JUSTAS]" property_label="folding stability dG unfold" value="0.857 kcal/mol"
seq="SAGGSAGGEDRLLLRVEVIVGGVPFEPVLEVDHPELRELLEEGRVLVVELPGGAVGRLYAEPLASAGGSAGG [r6_478_TrMRF]" property_label="folding stability dG unfold" value="0.811 kcal/mol"
seq="SASKRFVFPVLGDEQTITVDVPEDYYVRITVFFPDGSEPILIPPNEKVTITVPRKDAFVVIEVFPKNEESAG [r14_882_TrMRF]" property_label="folding stability dG unfold" value="2.48 kcal/mol"

Turning now to a further sequence:
Quick one: folding stability dG unfold for SAGGSMVKLKVTSVSREGNYLTVTAELGNLIVEIRFDEGTDRFEVKVSEKPLVLGEEEIEELAKASSAGGSA [r2_482_TrMRF] ?
2.08 kcal/mol

----------
experiment: folding stability dG unfold (combined trypsin and chymotrypsin); higher = more stable
PROPERTY_LABEL: folding stability dG unfold (kcal/mol)
Kindly provide the numeric value in kcal/mol only, without the unit symbol.

Below: 5 sequences and their reported folding stability dG unfold.
seq="SAGGMPKTITVERTLDVDPAVLASTTPEELVARVVEELRAEGVPISSVDPQTITRGATTVTVRVTLLESAGG [r13_432_JUSTAS]" value=2.08
seq="SAGMGIVEALRRELEAAGLDVRVSATVEPLPDLGYVLITVHVEVRNENGEWVPLGPLTILLPVEEAERLSAG [r5_413_TrMRF]" value=2.55
seq="SAGGVEREPTEEDLLVATAEFLIEVRDPDSDYPLVEPVPITLPFTSLEDLLEELRRLKAEVEEALASSAGGS [r16_624_TrMRF]" value=1.7
seq="SAGGSAGGGSMDPKVETEEFEEPGREVKREKLPDGLVVTEYTEPDGPKSTVVTDPETGKVTVIGSAGGSAGG [r6_159_JUSTAS]" value=0.082
seq="SMPVGVEELAERLAEEIEKELSEKTGVPVKVEKITVEEDPATGTVTVTITLYLPDGKKIREESLTVPVLESA [r9_60_JUSTAS]" value=1.53

Quick one: folding stability dG unfold for SAGGSAGGSAGGPKAIVTEVEVEPNTGKARLKVKVYDPVTGKFSEFEVEVETTGKDLNLSAGGSAGGSAGGS [r10_173_TrMRF] ?
1.89

----------
assay: folding stability dG unfold from trypsin proteolysis; higher = more stable
sequences and their reported folding stability dG unfold
Kindly provide the numeric value in kcal/mol only, without the unit symbol.

seq="SAGGSAGGSAMKVSTTPVTLPNGESATLETLPDGTKVLKVGDKYIVVYPSGEVKEVPLEELLSAGGSAGGSA [r18_379_JUSTAS]" property_label="folding stability dG unfold" value=1.43
seq="SAGGSAGGSKSYEIKEITFDPENNTITIVLVAPDGKIVRTETFKPGEEVVFTFENGEKVTVKASAGGSAGGS [r12_441_TrMRF]" property_label="folding stability dG unfold" value=1.99
seq="SAGPVVLSPDDTVKIGKKELTFFSDGTVSVKYPDGTGESITVTVDPSSGNITLTETFTEPETGTTPVENSAG [r5_33_JUSTAS]" property_label="folding stability dG unfold" value=0.473
seq="SAGGSAGGSAKPTYRVLVKNEDGEVLEAEVKVVDGKVEVTVNGKVYTFPKGAKIEIVKIEPVSAGGSAGGSA [r18_144_TrROS_Hall]" property_label="folding stability dG unfold" value=3.34
seq="SAGGSAGGSAMKLEVFPVPDGQIAVFEDADGNIRVIGVPEPNLSISDIAKIALDLGADSVELSAGGSAGGSA [r18_83_TrMRF]" property_label="folding stability dG unfold" value=0.451

Quick one: folding stability dG unfold for SAMKYLVEVTADLGGPSVRYELDAESIEEAIEKVKEKLKPLFPDAPLKNITLTFHDPSSDETTTVNIVESAG [r14_54_JUSTAS] ?
3.36

Quick one: folding stability dG unfold for SAGGSAGGSAGGMLSGQVIEVTIPPERRLVRVEKLPSGDYLITIYRPDEPKPLETLRIRASAGGSAGGSAGG [r7_620_JUSTAS] ?
1.49

----------
assay: folding stability dG unfold from trypsin proteolysis; higher = more stable
PROPERTY_LABEL: folding stability dG unfold

Below: 2 sequences and their reported folding stability dG unfold.
seq="SAGEKEFEIVEVKVNKETNEVYFLVRDKEKNRLIKVHSNGTVEIYDLKDPGKKITINMSLEELLALLKKSAG [r5_491_TrROS_Hall]" value="10.4 kJ/mol"
seq="SKKPKIKIEIEIVEITEVKYDKKTNKITVKVKVKIKIEVEVNGKKKKIEIEIPKNMTLEEILKKLKELLKSA [r9_656_TrROS_Hall]" value="9.01 kJ/mol"

Quick one: folding stability dG unfold for SAGGSAGGSAMTTTSTSTYPDSITTTTTTTVDGTYIITTTTFYPATGTTTTTTTTLPPSLTSAGGSAGGSAG [r3_316_JUSTAS] ?
12.2 kJ/mol

Quick one: folding stability dG unfold for SAMVITTSLEEARKRTGLSESASPEEVRAAVEALIAAETAAGVTLLAIELLEVGDTWTLRVEIERAGGVSAG [r14_158_JUSTAS] ?
9.88 kJ/mol

Quick one: folding stability dG unfold for SAGGSAEPLVYELPDGTVVLLPPTTAVVYHRLSDGRVVVVGLEVDDPPDPEKALARARAVVEALPDSAGGSA [r15_748_TrMRF] ?
0.28 kJ/mol

----------
assay: folding stability dG unfold (combined trypsin and chymotrypsin); higher = more stable
sequences and their reported folding stability dG unfold
Kindly provide the numeric value in kcal/mol only, without the unit symbol.

seq="SAGGSSMEVEIDTSKSTTTYTHPSGEKVATRSLVLTPPSPGDPLRFLNVEFEKLPDGSVVVKKIVGSAGGSA [r2_362_JUSTAS]" value=-0.0806
seq="SAGGSAGGSAGGGNLALPPRYRITVRIEKDGSTSTVEFDSEEELAALDDPGLTVTEVREESAGGSAGGSAGG [r7_793_JUSTAS]" value=0.745
seq="SGPTVTYKVPYTRDVAVPTVKIGAKVTTTTTVTKLPNGTLASTSTSADVELTLNLPPDTPLSPNYLSTGGSA [r9_277_JUSTAS]" value=-0.0833
seq="SAGGEFRITFMVPADPNDPAVELAKWIADEFMPPGWKVEVDIKVVPSPDGYYMIDIPVEIMPPGQPISAGGS [r16_128_TrROS]" value=2.49

Turning now to a further sequence:
Quick one: folding stability dG unfold for SAGGSAGGSAGGSLPLILRLAEENGFSVSAVPIPETGTYKAVVTLPDGKPITIELPLTLSAGGSAGGSAGGS [r4_121_TrMRF] ?
0.804
